Reference source: ChEMBL document CHEMBL1128437

Species: Felis catus
Assay: The maximal difference in Intraocular Pressure (IOP) between treated and control eyes. The effect was tested in cats at a dose of 10.0 (ug/eye)
Type: functional
endpointName: Imax

INSERT INTO results (molsmiles, val) VALUES
  ('CC(C)OC(=O)CCC/C=C\C[C@@H]1[C@@H](/C=C/[C@@H](O)CCc2ccc(Br)cc2)[C@H](O)C[C@@H]1O', '<-3 mmHg'),
  ('CC(C)OC(=O)CCC/C=C\C[C@@H]1[C@@H](/C=C/[C@H](O)CCc2ccc(Br)cc2)[C@H](O)C[C@@H]1O', '<-2 mmHg');

Let us move to another entry and its Imax.
Qu. For the compound CC(C)OC(=O)CCC/C=C\C[C@@H]1[C@@H](/C=C/[C@@H](O)CCc2cccc(Br)c2)[C@H](O)C[C@@H]1O , give its measured Imax value.
Ans. <-3.3 mmHg
